The reader will find reported koff values listed item by item below.
Molecular target: T1, human OPGbp[143-317] (human, UniProt O14788 143-317)
T1 construct: Labelled with Eu in the FRET assay
T1 sequence (looked up): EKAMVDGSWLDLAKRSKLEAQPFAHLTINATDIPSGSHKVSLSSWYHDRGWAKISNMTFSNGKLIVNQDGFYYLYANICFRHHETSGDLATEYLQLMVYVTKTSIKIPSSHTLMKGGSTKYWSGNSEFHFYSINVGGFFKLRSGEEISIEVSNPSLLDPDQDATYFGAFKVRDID
Experiment: SPR (BIAcore), immobilized OPGbp[143-317]
Respond with the bare value in s⁻¹.

Some solved entries appear below for comparison.
“AT” Fab S97A (Fab, V domains shown, The Fab carried a 6xHis tag. Its chain and terminus are not stated, so it is left out., His-tagged Fab) VH: QVQLVQSGAEVRKPGASVKVSCKASGYDFSNYAIHWVRQAPGQRLEWMGWINAGNGNTKFSQKFQGRITVTRDTAASTAYMELRSLRSEDTAVYYCARDSANMVRGIIIAYYFDYWGQGTLVTVSS VL: EIVMTQSPSSLSASVGDRVTITCRASQSISRYLNWYQLKPGKAPRLLIYGASSLQSGVPSRFSGSGSGAEFTLTISSLQPEDIATYYCQHTRAFGQGTKVEIKR	0.0062
“AT” Fab S96A (Fab, V domains shown, The Fab carried a 6xHis tag. Its chain and terminus are not stated, so it is left out., His-tagged Fab) VH: QVQLVQSGAEVRKPGASVKVSCKASGYDFSNYAIHWVRQAPGQRLEWMGWINAGNGNTKFSQKFQGRITVTRDTAASTAYMELRSLRSEDTAVYYCARDASNMVRGIIIAYYFDYWGQGTLVTVSS VL: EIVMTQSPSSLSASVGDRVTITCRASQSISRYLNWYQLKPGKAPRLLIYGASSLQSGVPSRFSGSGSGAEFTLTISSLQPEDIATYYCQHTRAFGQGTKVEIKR	0.0072
“AT” Fab Y111A (Fab, V domains shown, His-tagged Fab) VH: QVQLVQSGAEVRKPGASVKVSCKASGYDFSNYAIHWVRQAPGQRLEWMGWINAGNGNTKFSQKFQGRITVTRDTAASTAYMELRSLRSEDTAVYYCARDSSNMVRGIIIAYYFDAWGQGTLVTVSS VL: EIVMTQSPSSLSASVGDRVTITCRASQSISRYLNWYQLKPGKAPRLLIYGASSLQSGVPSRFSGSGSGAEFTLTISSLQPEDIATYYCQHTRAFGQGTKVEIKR	0.414
“AT” Fab D110A (Fab, V domains shown, His-tagged Fab) VH: QVQLVQSGAEVRKPGASVKVSCKASGYDFSNYAIHWVRQAPGQRLEWMGWINAGNGNTKFSQKFQGRITVTRDTAASTAYMELRSLRSEDTAVYYCARDSSNMVRGIIIAYYFAYWGQGTLVTVSS VL: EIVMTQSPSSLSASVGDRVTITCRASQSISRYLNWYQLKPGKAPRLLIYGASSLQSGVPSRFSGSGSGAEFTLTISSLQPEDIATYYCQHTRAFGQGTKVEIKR	0.127

Now for another entry.
input: So what's the measured koff for this one? “AT” Fab N98A (Fab, V domains shown, The Fab carried a 6xHis tag. Its chain and terminus are not stated, so it is left out., His-tagged Fab) VH: QVQLVQSGAEVRKPGASVKVSCKASGYDFSNYAIHWVRQAPGQRLEWMGWINAGNGNTKFSQKFQGRITVTRDTAASTAYMELRSLRSEDTAVYYCARDSSAMVRGIIIAYYFDYWGQGTLVTVSS VL: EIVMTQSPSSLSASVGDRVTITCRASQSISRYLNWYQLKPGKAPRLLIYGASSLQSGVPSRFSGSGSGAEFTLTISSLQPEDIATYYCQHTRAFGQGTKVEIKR
output: 0.012
